# procedure text: solvent given as SMILES
# test settings: in CO
Please map values of absorption maximum to classes as shown: lo: < 300 nm; mid: ≥ 300 nm and < 400 nm; hi: ≥ 400 nm

• CN(C)c1ccc(C2=Cc3c4ccccc4c4ccccc4[n+]3[B-](F)(F)O2)cc1 = hi
• CC1(C)CCc2c(c3ccccc3c3nc4c5c(c6ccccc6c4nc23)OC(C)(C)CC5)O1 = hi
• C(=C\c1cc[n+]2ccc(/C=C/c3ccsc3)cc2c1)/c1ccsc1 = hi
• Cc1ccc(OCc2cc(=O)oc3c2ccc2ccccc23)cc1 = mid
• c1ccc(N(c2ccccc2)c2ccc(-c3cncs3)cc2)cc1 = mid
• CC1(C)C(/C=C/C2=C(Cl)C(=C/C=C3/N(CCCCS(=O)(=O)[O-])c4ccc5ccccc5c4C3(C)C)/CCC2)=[N+](CCCCS(=O)(=O)[O-])c2ccc3ccccc3c21 = hi
• COc1ccc(-c2nc3c(c4c2-c2ccccc2CC4)-c2ccccc2CC3)cc1 = mid
• CCN(CC)c1ccc(-c2nc3c(c4c2-c2ccc(C#N)cc2CC4)-c2ccc(C#N)cc2CC3)cc1 = mid
• O=C([O-])c1c(Cl)c(Cl)c(Cl)c(Cl)c1-c1c2cc(I)c(=O)c(I)c-2oc2c(I)c([O-])c(I)cc12 = hi
• CC(=O)Nc1ccc(O)cc1 = lo
• CCOC(=O)COc1ccc(/C=C/C2=C3c4ccccc4C(c4[nH]c(C)cc4C)=[N+]3[B-](F)(F)n3c(C)cc(C)c32)cc1 = hi
• N#C[Se]CCCCCOc1ccc2ccc(=O)oc2c1 = mid
• Cc1cc(C)c(C2=[N+]3C(=Cc4c(C)cc(C)n4[B-]3(F)F)c3ccccc32)[nH]1 = hi
• COC(=O)C[C@H](Cc1c[nH]c2ccccc12)NC(=O)[C@H](CC(=O)N[C@@H](CC1=CCc2ccccc21)C(=O)OC)NC(=O)[C@H](Cc1c[nH]c2ccccc12)NC(=O)OC(C)(C)C = lo
• COC(=O)c1nc2c(N(C)C)nc(N(C)C)nc2n1Cc1ccccc1 = mid
• CN(C)c1ncc2nc(C#N)n(Cc3ccccc3)c2n1 = mid
• N#Cc1c(-n2nnc3ccccc32)n([C@H]2C[C@H](O)[C@@H](CO)O2)c2ncnc(N)c12 = lo

Attribution: the Deep4Chem optical property database
